tested-on: A*11:01, P04439
assay-conditions: modification not given
endpoint-name: IC50
In your response, the unit should come after the numeric value.

I'd like to know its IC50. The binder in question is ALKINWYRK […, serotype 3]
376 nM

meta.source: patent US20190008947A1
